5-HT2A (Homo sapiens): reported pKi for various molecules.
Sequence (P28223 whole entry): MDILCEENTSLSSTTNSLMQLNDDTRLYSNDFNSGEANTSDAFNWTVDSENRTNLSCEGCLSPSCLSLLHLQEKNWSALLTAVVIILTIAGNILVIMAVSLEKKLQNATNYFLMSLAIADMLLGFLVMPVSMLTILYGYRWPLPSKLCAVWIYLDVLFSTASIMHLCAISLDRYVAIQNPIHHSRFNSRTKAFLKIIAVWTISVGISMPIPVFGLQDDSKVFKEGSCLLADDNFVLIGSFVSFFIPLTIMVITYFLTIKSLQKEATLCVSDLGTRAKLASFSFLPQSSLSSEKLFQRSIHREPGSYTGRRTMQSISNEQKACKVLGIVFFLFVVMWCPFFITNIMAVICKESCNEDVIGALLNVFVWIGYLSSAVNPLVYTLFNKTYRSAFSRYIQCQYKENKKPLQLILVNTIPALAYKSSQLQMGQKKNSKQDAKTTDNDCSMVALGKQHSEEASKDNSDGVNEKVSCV
pKi: −log10 of the molar value.
readout-type: pKi

{"columns": ["molecule", "reported"],
 "data": [
  ["CN1CCN(c2nc(N)nc(Cc3cccc(Cl)c3)n2)CC1 [Compound 1]", 6.57],
  ["Cc1ccc(C(C)C)c(OCc2nc(N)nc(N3CCN(C)CC3)n2)c1 [Compound 4]", 6.37],
  ["CN1CCN(c2nc(N)nc(Cc3c[nH]c4ccccc34)n2)CC1 [Compound 3]", 5.76]
]}
